Experimental Target: HsDHODH L359A (Homo sapiens, UniProt Q02127, L358A)
Sequence (Q02127 32-395 L358A): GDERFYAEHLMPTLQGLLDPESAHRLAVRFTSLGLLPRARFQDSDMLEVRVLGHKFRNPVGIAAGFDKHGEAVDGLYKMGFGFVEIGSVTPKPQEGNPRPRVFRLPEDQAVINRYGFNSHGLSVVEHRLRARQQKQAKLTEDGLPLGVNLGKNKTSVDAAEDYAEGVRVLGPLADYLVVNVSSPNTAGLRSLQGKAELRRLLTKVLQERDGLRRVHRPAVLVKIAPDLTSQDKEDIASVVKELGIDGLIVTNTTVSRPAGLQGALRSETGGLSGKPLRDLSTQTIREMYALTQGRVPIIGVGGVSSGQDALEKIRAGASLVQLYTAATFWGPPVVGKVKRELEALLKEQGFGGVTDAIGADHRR
Protocol Text: biochemical
Parameter: IC50. Scope: all listed entries.

Molecule	IC50
Cc1cc(Nc2cc(F)c(C(F)(F)F)c(F)c2)n2nc(C(C)(F)F)nc2n1 [Compound 11]	> 100 µM
Cc1cc(Nc2ccc(C(F)(F)F)c(F)c2)n2nc(C(C)(F)F)nc2n1 [Compound 10]	> 100 µM

###

Experimental Target: HsDHODH L46A (Homo sapiens, UniProt Q02127, L45A)
Sequence (Q02127 32-395 L45A): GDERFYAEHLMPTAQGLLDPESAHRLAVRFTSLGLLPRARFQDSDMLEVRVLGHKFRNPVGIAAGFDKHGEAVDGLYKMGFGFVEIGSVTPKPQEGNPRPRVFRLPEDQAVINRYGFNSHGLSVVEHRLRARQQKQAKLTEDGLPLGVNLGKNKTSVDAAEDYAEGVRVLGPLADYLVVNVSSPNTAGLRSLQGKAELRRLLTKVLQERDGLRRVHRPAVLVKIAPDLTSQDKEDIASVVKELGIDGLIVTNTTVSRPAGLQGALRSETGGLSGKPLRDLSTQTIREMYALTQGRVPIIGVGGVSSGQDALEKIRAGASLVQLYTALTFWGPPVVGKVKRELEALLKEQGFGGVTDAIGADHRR
Protocol Text: biochemical
pIC50: −log10 of the molar value.
Reported Property: pIC50

Compound Structure String	Measured Result
Cc1cc(Nc2cc(F)c(C(F)(F)F)c(F)c2)n2nc(C(C)(F)F)nc2n1	< 4.00
Cc1cc(Nc2cc(F)c(C(F)(F)F)c(F)c2)n2nc(C(F)(F)F)nc2n1	< 4.00
Cc1cc(Nc2ccc(C(F)(F)F)c(F)c2)n2nc(C(C)(F)F)nc2n1	< 4.00
